- System: S. aureus RN4220
- test_method_notes: growth inhibition call (relative growth <= 0.2)
- experimental_parameters: 50 µM
About 500 (1.3%) of roughly 39,000 compounds were called active. Many of the other results were omitted from the sample, so actives are more common in it than they were.
Possible outcomes: 1.0 for active, 0.0 for inactive

INSERT INTO measurements (compound, label_class) VALUES
  ('O=C(C[C@H]1C[C@@H]2c3cc(NS(=O)(=O)c4ccc(F)cc4)ccc3O[C@@H]2[C@@H](CO)O1)NC1CCCCC1', 0.0),
  ('O=C(O)[C@@H]1CCCCN1', 0.0),
  ('COCC(=O)N1C[C@@H](C)[C@@H](OC)CN(C)C(=O)c2cc(NC(=O)Nc3cccc(F)c3)ccc2OC[C@H]1C', 0.0),
  ('C[C@@H]1CN([C@@H](C)CO)C(=O)c2cccc(NS(C)(=O)=O)c2O[C@H]1CN(C)C(=O)Nc1ccc(F)cc1', 0.0),
  ('c1ccc(Nc2nc3c(ccc4ccccc43)s2)cc1', 0.0),
  ('OC[C@@H]1CCCCN1', 0.0),
  ('Cc1noc(C)c1NC(=O)Nc1ccc2c(c1)C(=O)N([C@H](C)CO)C[C@H](C)[C@@H](CN(C)C(=O)NC1CCCCC1)OCCCC[C@@H](C)O2', 0.0),
  ('CCCC1CC(C(=O)NC(C(C)Cl)C2OC(SC)C(O)C(O)C2O)N(C)C1.Cl (configuration not stated)', 1.0),
  ('C1CCC(C(C[C@H]2CCCCN2)C2CCCCC2)CC1', 1.0),
  ('COCC(=O)N1C[C@]2(C1)CN([C@@H](CO)c1[nH]c3cc(ccc3c12)OC)S(=O)(=O)C', 0.0),
  ('Cc1noc(C)c1NC(=O)N(C)C[C@H]1OCCCC[C@@H](C)Oc2ccc(NC(=O)NC3CCCCC3)cc2C(=O)N([C@H](C)CO)C[C@@H]1C', 0.0),
  ('CCCCCCCCCCCCCCCC(=O)O[C@@H]1[C@@H](O)[C@@H](O)[C@@H]([C@H](NC(=O)[C@@H]2C[C@@H](CCC)CN2C)[C@H](C)Cl)O[C@@H]1SC', 0.0),
  ('CCCCCCCCCCCCCCCC(=O)OC1C(SC)OC(C(NC(=O)C2CC(CCC)CN2C)C(C)Cl)C(O)C1O.Cl (configuration not stated)', 0.0),
  ('C[C@H](CO)N1C[C@H](C)[C@H](CN(C)C(=O)Nc2ccc(C(F)(F)F)cc2)Oc2c(NS(C)(=O)=O)cccc2C1=O', 0.0),
  ('C[C@H]1CN([C@@H](C)CO)C(=O)c2cccc(NS(C)(=O)=O)c2O[C@@H]1CN(C)C(=O)Nc1ccc(C(F)(F)F)cc1', 0.0),
  ('CS(=O)(=O)N1CCn2cc(Cn3cncn3)nc2C1', 0.0),
  ('C[C@@H]1CCCCO[C@H](CN(C)S(=O)(=O)c2cn(C)cn2)[C@H](C)CN([C@H](C)CO)C(=O)c2cc(N(C)C)ccc2O1', 0.0);

---

- System: S. aureus RN4220
- test_method_notes: growth inhibition call (relative growth <= 0.2)
- experimental_parameters: 50 µM
The campaign covered roughly 39,000 compounds. About 500 (1.3%) were called active. The entries come from a sample that favours actives as a whole.
Labels: active, inactive

INSERT INTO assay_data (compound, label_class) VALUES
  ('NC[C@H]1O[C@H](O[C@@H]2[C@H](O)[C@@H](O[C@H]3O[C@H](CO)[C@@H](O)[C@H](N)[C@H]3O)[C@H](N)C[C@@H]2N)[C@H](O)[C@@H](O)[C@@H]1O', 'inactive'),
  ('O=c1[nH]c(=O)n([C@H]2C[C@H](O)[C@@H](CO)O2)cc1F', 'active'),
  ('C[C@@H]1CN([C@H](C)CO)C(=O)c2cc(NS(=O)(=O)c3ccc(F)cc3)ccc2O[C@@H](C)CCCCO[C@H]1CN(C)C(=O)Nc1ccccc1', 'inactive'),
  ('CCCCCCCc1c(C)c(O)cc2c1[nH]c1ccccc12', 'inactive'),
  ('NCC1CCC(N)C(OC2C(N)CC(N)C(OC3OC(CO)C(O)C(N)C3O)C2O)O1 (centres undefined)', 'inactive'),
  ('C[C@H]1CN([C@@H](C)CO)C(=O)c2cccc(NC(=O)Nc3ccc(C(F)(F)F)cc3)c2O[C@@H]1CN(C)C(=O)Nc1ccc(C(F)(F)F)cc1', 'inactive'),
  ('O=c1[nH]c(=O)n([C@@H]2C[C@@H](O)[C@@H](CO)O2)cc1F', 'active'),
  ('COC(=O)CCc1ccc(OC)cc1O', 'inactive'),
  ('C[N+](C)(CCOc1ccccc1)Cc1ccccc1.O=C([O-])c1cc2ccccc2cc1O', 'inactive'),
  ('CC(C)(C)CC(C)(C)c1ccc(OCCOCC[N+](C)(C)Cc2ccccc2)cc1.[Cl-]', 'active'),
  ('Cc1cc(C(C)(C)CC(C)(C)C)ccc1OCCOCC[N+](C)(C)Cc1ccccc1.[Cl-]', 'active'),
  ('CCCCCCc1ccc(O)cc1O.Nc1c2ccccc2nc2ccccc12', 'inactive'),
  ('C[C@@H]1CN([C@H](C)CO)C(=O)CCCn2cc(nn2)CO[C@H]1CN(C)C(=O)c1ccc(N2CCN(C)CC2)cc1', 'inactive'),
  ('Cc1ccc(S(=O)(=O)N(C)C[C@H]2OCCCC[C@@H](C)Oc3ccc(NC(=O)CCCCCC(=O)Nc4ccccc4N)cc3C(=O)N([C@H](C)CO)C[C@@H]2C)cc1', 'inactive'),
  ('NC[C@H]1O[C@H](O[C@H]2[C@@H](O[C@@H]3O[C@H](CO)[C@@H](O)[C@H]3O)[C@@H](O)[C@H](N)C[C@@H]2N)[C@H](N)[C@@H](O)[C@@H]1O', 'inactive'),
  ('CCCCCCc1ccc(O)cc1O', 'active'),
  ('COC(=O)C[C@@H]1CC[C@H]2[C@@H](COC[C@@H](O)CN2S(=O)(=O)c2ccc(F)cc2)O1', 'inactive'),
  ('COc1ccc(NC(=O)N(C)C[C@H]2Oc3c(NC(=O)c4cc(C)nn4C)cccc3C(=O)N([C@H](C)CO)C[C@H]2C)cc1', 'inactive'),
  ('Cc1cn([C@@H]2C[C@@H](O)[C@H](CO)O2)c(=O)[nH]c1=O', 'inactive'),
  ('NC[C@@H]1O[C@H](O[C@H]2[C@@H](O)[C@H](O[C@@H]3[C@@H](O)[C@H](N)C[C@H](N)[C@H]3O[C@@H]3O[C@H](CO)[C@@H](O)C[C@H]3N)O[C@@H]2CO)[C@H](N)[C@@H](O)[C@@H]1O[C@H]1O[C@H](CO)[C@@H](O)[C@H](O)[C@@H]1O', 'inactive'),
  ('CCCC#Cc1ccc2c(c1)O[C@@H](CN(C)C(=O)c1cnccn1)[C@@H](C)CN([C@@H](C)CO)S2(=O)=O', 'inactive'),
  ('CCCN(C)C[C@@H]1OCCCC[C@@H](C)Oc2ccc(NS(=O)(=O)c3cn(C)cn3)cc2C(=O)N([C@@H](C)CO)C[C@@H]1C', 'inactive'),
  ('CCCCCc1c2c(cc(O)c1C(=O)O)OC(=O)c1c(cc(OC)cc1C(=O)CCCC)O2', 'active'),
  ('Cc1nccn1-c1ccc(CN)cc1', 'inactive'),
  ('CCCN(C)C[C@H]1OCCCC[C@H](C)Oc2ccc(NC(=O)CCC(F)(F)F)cc2C(=O)N([C@H](C)CO)C[C@@H]1C', 'inactive'),
  ('NCC1OC(OC2C(N)CC(N)C(OC3OC(CO)C(O)C(N)C3O)C2O)C(N)CC1O (centres undefined)', 'active'),
  ('COCCOC(=O)N1C(=O)[C@@]2(c3cc(C#CCC(C(=O)OC)C(=O)OC)ccc31)[C@H](C(=O)N1CCCCCCC1)[C@H]1C(=O)O[C@H](c3ccccc3)[C@H](c3ccccc3)N1[C@@H]2c1ccc(O)cc1', 'active'),
  ('O=C(C[C@@H]1CC[C@@H]2[C@H](COC[C@@H](O)CN2C(=O)c2ccncc2)O1)NCc1ccc(-c2ccccc2)cc1', 'inactive'),
  ('Cc1cn([C@H]2C[C@H](O)[C@@H](CO)O2)c(=O)[nH]c1=O', 'inactive');
